Reported pIC50 values for a set of compounds
# targetSystem: USP25 (Homo sapiens (Human), UniProt Q9UHP3)
# Sequence (Q9UHP3 whole entry): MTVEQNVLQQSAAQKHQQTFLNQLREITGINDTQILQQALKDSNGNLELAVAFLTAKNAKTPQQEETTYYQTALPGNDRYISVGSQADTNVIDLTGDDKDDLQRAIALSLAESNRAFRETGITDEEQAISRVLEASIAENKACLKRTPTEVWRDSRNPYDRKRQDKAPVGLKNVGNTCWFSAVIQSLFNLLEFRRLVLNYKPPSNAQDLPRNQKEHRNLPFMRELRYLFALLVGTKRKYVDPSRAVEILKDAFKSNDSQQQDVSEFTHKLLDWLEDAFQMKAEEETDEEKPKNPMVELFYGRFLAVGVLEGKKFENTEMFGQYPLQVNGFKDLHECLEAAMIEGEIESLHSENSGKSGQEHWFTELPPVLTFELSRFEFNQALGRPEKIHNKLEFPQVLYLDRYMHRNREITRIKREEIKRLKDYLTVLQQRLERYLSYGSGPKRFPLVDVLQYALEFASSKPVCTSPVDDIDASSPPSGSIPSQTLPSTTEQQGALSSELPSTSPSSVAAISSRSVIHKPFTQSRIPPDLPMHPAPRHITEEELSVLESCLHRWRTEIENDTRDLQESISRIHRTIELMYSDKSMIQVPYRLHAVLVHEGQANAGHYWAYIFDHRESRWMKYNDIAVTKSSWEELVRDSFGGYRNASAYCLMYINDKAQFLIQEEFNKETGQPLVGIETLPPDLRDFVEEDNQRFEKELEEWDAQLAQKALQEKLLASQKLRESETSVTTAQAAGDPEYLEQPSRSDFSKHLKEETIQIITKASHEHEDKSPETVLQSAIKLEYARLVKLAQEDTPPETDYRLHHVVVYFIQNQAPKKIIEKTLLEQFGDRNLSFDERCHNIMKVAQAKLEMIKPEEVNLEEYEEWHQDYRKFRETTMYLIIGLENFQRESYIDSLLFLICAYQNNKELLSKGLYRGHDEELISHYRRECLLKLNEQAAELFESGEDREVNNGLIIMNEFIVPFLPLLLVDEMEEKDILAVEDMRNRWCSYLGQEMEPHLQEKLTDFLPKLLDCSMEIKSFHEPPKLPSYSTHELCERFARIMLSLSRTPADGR
pIC50: −log10 of the molar value.

// known answers, use as guide
> print(dat)
                                   compound  assayreadout        result
1  Cc1ccc2c(N)c(C(=O)NC[C@@H](C)c3ccc(N4CC5CCC(C4)N5)c(F)c3)sc2n1 (single isomer, unassigned)         pIC50  5.70 to 6.70
2  Nc1c(C(=O)NCCc2ccc(N3CCNCC3)cc2)sc2nc3c(cc12)CCC3         pIC50  5.00 to 5.70
3  CN[C@@H]1CCN(c2ccc(CCNC(=O)c3sc4nc(C)ccc4c3N)cc2Cl)C1         pIC50  5.70 to 6.70

# input // query pIC50 value for entry Nc1c(C(=O)NCCc2ccc(N3CCNCC3)cc2)sc2nc(OC(F)F)ccc12
# output 5.70 to 6.70

# input Okay, and Cc1cc(Cl)nc2sc(C(=O)NCCc3ccc(N4CCNCC4)cc3)c(N)c12 ?
# output 5.70 to 6.70

# input Let us now turn to Cc1nc2sc(C(=O)NC[C@@H](C)c3ccc(N4CC5CCC(C4)N5)c(F)c3)c(N)c2cc1F (single isomer, unassigned)
# output 4.60 to 5.00

# input Here is the next compound: Cc1ccc2c(N)c(C(=O)NCCc3ccc(N4CCNCC4)cc3-c3ccccc3)sc2n1
# output > 6.70

# input Queued: Cc1ccc2c(N)c(C(=O)NCCc3ccc(N4CCNCC4)cc3C3CC3)sc2n1
# output > 6.70

* * *

Readings of IC50 for the listed compounds
# targetSystem: USP28 (Homo sapiens (Human), UniProt Q96RU2)
# Sequence (Q96RU2 whole entry): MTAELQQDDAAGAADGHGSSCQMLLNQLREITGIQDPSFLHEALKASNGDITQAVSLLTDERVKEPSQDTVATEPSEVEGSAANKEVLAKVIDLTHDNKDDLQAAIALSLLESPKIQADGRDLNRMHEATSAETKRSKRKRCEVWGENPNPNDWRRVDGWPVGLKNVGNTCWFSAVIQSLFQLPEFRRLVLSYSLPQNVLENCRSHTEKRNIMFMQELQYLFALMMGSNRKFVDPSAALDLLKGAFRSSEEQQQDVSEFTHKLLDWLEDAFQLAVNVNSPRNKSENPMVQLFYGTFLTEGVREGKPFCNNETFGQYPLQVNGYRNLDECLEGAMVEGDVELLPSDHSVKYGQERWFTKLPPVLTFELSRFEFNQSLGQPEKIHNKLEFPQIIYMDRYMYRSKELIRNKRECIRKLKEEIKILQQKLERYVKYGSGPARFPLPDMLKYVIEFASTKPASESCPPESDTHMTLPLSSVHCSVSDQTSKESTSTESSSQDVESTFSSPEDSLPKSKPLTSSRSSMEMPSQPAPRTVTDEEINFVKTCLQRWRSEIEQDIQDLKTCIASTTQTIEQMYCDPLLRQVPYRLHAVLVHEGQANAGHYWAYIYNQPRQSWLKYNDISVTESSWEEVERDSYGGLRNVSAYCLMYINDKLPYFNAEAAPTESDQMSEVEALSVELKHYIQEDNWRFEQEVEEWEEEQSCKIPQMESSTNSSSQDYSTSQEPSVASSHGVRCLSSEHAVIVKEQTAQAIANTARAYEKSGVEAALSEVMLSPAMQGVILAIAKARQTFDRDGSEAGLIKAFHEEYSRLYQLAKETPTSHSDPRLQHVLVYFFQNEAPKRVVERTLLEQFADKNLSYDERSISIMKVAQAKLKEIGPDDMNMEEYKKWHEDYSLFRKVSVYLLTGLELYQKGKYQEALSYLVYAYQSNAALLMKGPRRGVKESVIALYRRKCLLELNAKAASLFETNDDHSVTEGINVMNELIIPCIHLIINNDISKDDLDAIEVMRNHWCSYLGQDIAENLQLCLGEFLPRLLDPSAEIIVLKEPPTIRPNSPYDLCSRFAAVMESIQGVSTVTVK
# assayNotes: Ubiquitin-Rhodamine 110 Assay for USP28 Activity
# Assay type: biochemical

Worked examples, 3 compounds total:
> print(dat)
                                givensmiles                              targetsystem       result
1  Cc1ccc2c(N)c(C(=O)NCCc3ccc(N4CCN[C@H](CO)C4)cc3)sc2n1  USP28 (Homo sapiens (Human), UniProt Q96RU2)  0.2 to 2 µM
2  Cc1ccc2c(N)c(C(=O)NCCc3ccc(-n4ncc5c4CNC5)c(F)c3)sc2n1  USP28 (Homo sapiens (Human), UniProt Q96RU2)   2 to 10 µM
3  Cc1ccc2c(N)c(C(=O)NCCc3cccc(CC(=O)O)c3)sc2n1  USP28 (Homo sapiens (Human), UniProt Q96RU2)   2 to 10 µM

# input Field request: IC50 | item: Cc1ccc2c(N)c(C(=O)NCCc3ccc(N4CC5CCC(C4)N5)c(F)c3)sc2n1
# output < 0.2 µM

# input Okay, and Cc1ccc2c(N)c(C(=O)NC[C@@H](C)c3ccc(N4CCNCC4)cc3)sc2n1 ?
# output 0.2 to 2 µM

# input Would you kindly repeat that for Cc1ccc2c(N)c(C(=O)NCCc3ccc(N4CC5CCC(C4)N5)cc3)sc2n1 ?
# output < 0.2 µM

# input Please do the same for Cc1ccc2c(N)c(C(=O)NCCc3cc(F)c(N4C[C@@H]5CCN[C@@H]5C4)cc3F)sc2n1 as well.
# output < 0.2 µM

# input Then this compound: Cc1ccc2c(N)c(C(=O)NCCc3ccc(N4CC5CCC(C4)N5)cc3F)sc2n1
# output < 0.2 µM
